The values you see were collected from the kinase profiling compilation of Christmann-Franck et al. (2016).

Biological target: UniProt:Q86Z02
Sequence (Q86Z02 whole entry, looked up): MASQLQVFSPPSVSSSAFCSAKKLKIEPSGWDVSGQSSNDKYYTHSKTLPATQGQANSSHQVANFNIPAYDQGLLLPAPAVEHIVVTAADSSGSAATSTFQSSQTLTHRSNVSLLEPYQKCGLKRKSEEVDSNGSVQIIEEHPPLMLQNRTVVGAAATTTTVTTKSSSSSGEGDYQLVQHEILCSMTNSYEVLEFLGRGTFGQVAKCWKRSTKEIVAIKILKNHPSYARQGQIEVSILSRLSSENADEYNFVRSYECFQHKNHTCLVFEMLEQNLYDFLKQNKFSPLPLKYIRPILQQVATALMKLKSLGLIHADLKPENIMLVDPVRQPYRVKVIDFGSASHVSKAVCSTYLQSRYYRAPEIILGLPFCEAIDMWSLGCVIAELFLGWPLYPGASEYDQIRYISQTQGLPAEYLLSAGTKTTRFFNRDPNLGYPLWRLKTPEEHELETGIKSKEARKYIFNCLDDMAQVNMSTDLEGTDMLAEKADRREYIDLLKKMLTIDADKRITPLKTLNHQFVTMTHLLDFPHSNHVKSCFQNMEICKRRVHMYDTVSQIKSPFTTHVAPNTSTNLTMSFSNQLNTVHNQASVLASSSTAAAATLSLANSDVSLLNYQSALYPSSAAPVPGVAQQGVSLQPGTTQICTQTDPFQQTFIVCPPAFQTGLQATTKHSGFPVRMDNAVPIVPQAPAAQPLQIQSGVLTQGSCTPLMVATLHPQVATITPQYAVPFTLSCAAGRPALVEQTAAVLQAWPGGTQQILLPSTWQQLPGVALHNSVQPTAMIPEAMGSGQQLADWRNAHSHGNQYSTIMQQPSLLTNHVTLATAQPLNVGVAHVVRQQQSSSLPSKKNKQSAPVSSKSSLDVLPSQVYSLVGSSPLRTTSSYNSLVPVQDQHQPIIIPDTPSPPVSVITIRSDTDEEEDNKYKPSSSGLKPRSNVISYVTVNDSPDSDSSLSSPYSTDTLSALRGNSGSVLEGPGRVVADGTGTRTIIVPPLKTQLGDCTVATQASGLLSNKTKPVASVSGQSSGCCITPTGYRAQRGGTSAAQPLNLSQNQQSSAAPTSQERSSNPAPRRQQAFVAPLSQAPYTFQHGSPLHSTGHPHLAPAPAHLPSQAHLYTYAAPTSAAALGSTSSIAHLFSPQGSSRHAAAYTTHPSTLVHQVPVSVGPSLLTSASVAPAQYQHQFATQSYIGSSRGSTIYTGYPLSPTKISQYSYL
Test: radiometric filter-binding kinase assay
Conditions: compound 1.0 µM
outcome measure: residual activity (%)

O=c1c(O)c(-c2ccc(O)c(O)c2)oc2cc(O)c(O)c(O)c12 | 93
CCNc1nc(Nc2cc(F)c(C(=O)N3CCOCC3)cc2OC)ncc1C(F)(F)F | 78

1 = O=C(Nc1ccccc1-c1cn2c(CN3CCNCC3)csc2n1)c1cnc2ccccc2n1
2 = COc1ccc(-n2ncc3cnc(Nc4cc(OC)c(OC)c(OCCCN5CCN(C)CC5)c4)nc32)cc1
Returns: the label, 1 or 2 , whose recorded residual activity is the lower number. # answer = label of selected item 2
(2: 17%, 1: 104%)
